# target_desc: TTR (Homo sapiens)
# assay_comment: FITC-T4 TTR competitive binding assay
# assay_conditions: pH 8
measured_endpoint: IC20 (nM)
I only need the number, in nM, no unit after it.

# count of solved cases: 5
Brc1ccc(Oc2cc(Br)c(Br)cc2Br)c(Br)c1 | 73
Clc1cc(Cl)c(-c2cc(Cl)c(Cl)cc2Cl)cc1Cl | 77
CCCOC(=O)c1ccc(O)cc1 [Propylparaben, propyl 4-hydroxybenzoate] | 5500
Clc1ccc(-c2cc(Cl)c(Cl)cc2Cl)cc1Cl | 160
Oc1c(Cl)c(Cl)c(Cl)c(Cl)c1Cl | 17

Write IC20 of Oc1c(Br)cc(Br)cc1Br ; system used: TTR (Homo sapiens)
8.9

Answer briefly: IC20 recorded on TTR (Homo sapiens) for NC(Cc1cc(I)c(Oc2cc(I)c(O)c(I)c2)c(I)c1)C(=O)O (stereo not shown)
21

Would you please give the reported IC20 of O=C(O)C(F)(F)C(F)(F)C(F)(F)C(F)(F)C(F)(F)C(F)(F)F with TTR (Homo sapiens)?
300

Give IC20 for this entry on TTR (Homo sapiens): CCCCCCCCCc1ccc(O)cc1
1800

Please respond with reported IC20 (system TTR (Homo sapiens)) for Brc1ccc(Oc2ccc(Br)cc2Br)c(Br)c1 .
210

Specify IC20 for NS(=O)(=O)C(F)(F)C(F)(F)C(F)(F)C(F)(F)C(F)(F)C(F)(F)C(F)(F)C(F)(F)F [FOSA, perfluorooctane sulfonamide] , system TTR (Homo sapiens).
190

# return IC20 for O=S(=O)(O)C(F)(F)C(F)(F)C(F)(F)C(F)(F)C(F)(F)C(F)(F)F , test system: TTR (Homo sapiens)
140

Provide IC20, tested on TTR (Homo sapiens), for O=C(O)C(F)(F)C(F)(F)C(F)(F)C(F)(F)C(F)(F)C(F)(F)C(F)(F)F .
490

###

# target_desc: TTR (Homo sapiens)
# assay_comment: FITC-T4 TTR competitive binding assay
# assay_conditions: IC20 of T4 / IC20 of compound (Equation 14)
Reported REP (relative potency compared to T4) values for the following molecules.
In your answer, state the number alone without any accompanying words.

Reference set, count: 10
O=S(=O)(O)C(F)(F)C(F)(F)C(F)(F)C(F)(F)C(F)(F)C(F)(F)C(F)(F)C(F)(F)F [PFOS, perfluorooctane sulfonic acid] | 0.26
Oc1cc(Br)cc(Br)c1Oc1cc(Br)c(Br)cc1Br [6ʹ-OH-BDE-99] | 2.5
Oc1c(Cl)c(Cl)c(-c2cc(Cl)c(Cl)cc2Cl)c(Cl)c1Cl [4-OH-CB-187] | 2.6
Brc1ccc(Oc2cc(Br)c(Br)cc2Br)c(Br)c1 [BDE-99, 2,2ʹ,4,4ʹ,5-pentabromodiphenyl ether] | 0.29
O=C(O)C(F)(F)C(F)(F)C(F)(F)C(F)(F)C(F)(F)C(F)(F)C(F)(F)F [PFOA, perfluorooctanoic acid] | 0.043
O=C(O)C(F)(F)C(F)(F)C(F)(F)C(F)(F)C(F)(F)C(F)(F)F [PFHpA, perfluoroheptanoic acid] | 0.071
Oc1c(Cl)cc(-c2ccc(Cl)c(Cl)c2)c(Cl)c1Cl [4-OH-CB-107, 4-OH-2,3,3ʹ,4ʹ,5-pentachlorobiphenyl] | 0.63
CCCCCCCCCc1ccc(O)cc1 [4-Nonylphenol, 4-nonylphenol] | 0.012
Oc1c(Br)cc(Br)cc1Br [2,4,6-TBP, 2,4,6-tribromophenol] | 2.4
Oc1c(Cl)c(Cl)c(Cl)c(Cl)c1Cl [Pentachlorophenol, pentachlorophenol] | 1.2

Read the next record carefully.
Recall the reported REP (relative potency compared to T4) of Brc1ccc(Oc2ccc(Br)cc2Br)c(Br)c1 [BDE-47, 2,2ʹ,4,4ʹ-tetrabromodiphenyl ether] on TTR (Homo sapiens) and write it down.
0.10

Measured values drawn from paper PMC7015555 for this set.
